target: hcGAS WT (Homo sapiens, UniProt Q8N884 1-522)
Sequence (Q8N884 whole entry): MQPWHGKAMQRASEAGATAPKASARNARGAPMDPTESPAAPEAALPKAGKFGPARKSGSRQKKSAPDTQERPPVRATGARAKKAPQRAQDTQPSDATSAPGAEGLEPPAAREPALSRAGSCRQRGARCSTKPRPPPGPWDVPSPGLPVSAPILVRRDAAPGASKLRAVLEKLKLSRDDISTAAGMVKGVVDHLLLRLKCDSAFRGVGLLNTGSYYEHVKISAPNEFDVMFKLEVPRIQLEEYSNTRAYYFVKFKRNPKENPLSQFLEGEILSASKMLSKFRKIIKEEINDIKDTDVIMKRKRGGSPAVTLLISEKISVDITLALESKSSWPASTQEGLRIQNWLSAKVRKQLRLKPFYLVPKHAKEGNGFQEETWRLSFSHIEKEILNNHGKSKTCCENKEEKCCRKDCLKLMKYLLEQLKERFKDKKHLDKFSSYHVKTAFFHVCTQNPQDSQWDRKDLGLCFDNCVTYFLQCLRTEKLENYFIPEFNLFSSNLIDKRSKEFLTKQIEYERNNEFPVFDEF
assay summary: MARTFQ fluorescence quenching; EMSA: 50 nM Cy3-DNA, 20 mM Tris-HCl pH 7.5, 150 mM NaCl, 37 C 30 min, 1.5% agarose; MST: 50 nM Cy5-DNA, same buffer, room temperature; MARTFQ: 50 nM cGAS, DNA titration, 5 min
conditions: protein: recombinant; tags: His (pET-28a, Ni purified); blunt; self-complementary strands
Listed binders paired with reported Kd
Only the number, expressed in nM, is required.

binder: pAT 44 bp poly(dA:dT) (dsDNA) DNA 1: ATATATATATATATATATATATATATATATATATATATATATAT DNA 2: ATATATATATATATATATATATATATATATATATATATATATAT
Kd [nM]: 640

Here is the next item to consider.
What value of Kd has been recorded for this entry: pGC 44 bp poly(dG:dC) (dsDNA) DNA 1: CGCGCGCGCGCGCGCGCGCGCGCGCGCGCGCGCGCGCGCGCGCG DNA 2: CGCGCGCGCGCGCGCGCGCGCGCGCGCGCGCGCGCGCGCGCGCG 376
